Target: Dmel\Orco + Dmel\Or35a (Drosophila melanogaster, UniProt Q9VNB5)
Construct: expressed in transfected cells; host or cells: Xenopus laevis oocytes (cRNA injection, pGEMHE)
Sequence (Q9VNB5 whole entry): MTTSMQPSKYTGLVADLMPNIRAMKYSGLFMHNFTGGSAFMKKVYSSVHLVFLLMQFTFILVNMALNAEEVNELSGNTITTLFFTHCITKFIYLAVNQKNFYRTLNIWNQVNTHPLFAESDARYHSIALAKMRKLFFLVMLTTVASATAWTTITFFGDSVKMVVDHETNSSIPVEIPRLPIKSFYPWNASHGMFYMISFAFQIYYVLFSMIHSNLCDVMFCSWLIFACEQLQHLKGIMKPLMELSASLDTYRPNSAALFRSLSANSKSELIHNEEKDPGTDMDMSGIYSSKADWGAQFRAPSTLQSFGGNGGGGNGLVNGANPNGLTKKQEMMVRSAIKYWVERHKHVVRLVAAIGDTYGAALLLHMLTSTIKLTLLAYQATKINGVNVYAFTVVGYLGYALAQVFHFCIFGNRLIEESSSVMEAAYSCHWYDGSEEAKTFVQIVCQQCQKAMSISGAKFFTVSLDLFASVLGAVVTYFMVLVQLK
Sequence (Q9V3Q2 whole entry partner): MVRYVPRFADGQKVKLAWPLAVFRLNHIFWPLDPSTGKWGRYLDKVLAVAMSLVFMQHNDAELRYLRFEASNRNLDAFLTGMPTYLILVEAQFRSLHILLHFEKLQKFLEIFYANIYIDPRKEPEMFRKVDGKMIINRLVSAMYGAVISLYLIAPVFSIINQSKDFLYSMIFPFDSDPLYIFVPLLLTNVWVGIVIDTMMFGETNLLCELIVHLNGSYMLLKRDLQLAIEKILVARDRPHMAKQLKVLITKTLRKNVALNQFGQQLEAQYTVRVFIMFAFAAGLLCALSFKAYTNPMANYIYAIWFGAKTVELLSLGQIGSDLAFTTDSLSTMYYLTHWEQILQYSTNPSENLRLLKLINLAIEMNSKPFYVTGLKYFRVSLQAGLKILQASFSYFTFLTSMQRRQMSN
Assay: Agonist activation of Dmel\Orco + Dmel\Or35a in Xenopus oocytes, two-electrode voltage clamp
Format: cell-based
Details: 100 µM compound; mean ± SEM, n=3-8
assayReadout: Response amplitude as percentage of response to 100 µM OLC3, Dmel\Orco + Dmel\Or35a
A complete answer gives the number followed by the unit.

Reference set, count: 5
molSmiles | endpointResult
CCn1c(SCC(=O)Nc2ccc(Br)cc2)nnc1-c1cccnc1 | 25 ± 7%
Cn1cnnc1-c1ccncc1 | 0%
Cc1nnc(-c2ccccn2)[nH]1 | 0%
CCc1ccccc1NC(=O)CSc1nnc(-c2cccnc2)n1CC | 0%
CCn1c(SCC(=O)Nc2ccc(OC)cc2)nnc1-c1cccnc1 | 4 ± 1%

What value of measured Response amplitude as percentage of response to 100 µM OLC3, Dmel\Orco + Dmel\Or35a is listed for Sc1nnc(-c2cccnc2)[nH]1 ?
0%

Bench note: what Response amplitude as percentage of response to 100 µM OLC3, Dmel\Orco + Dmel\Or35a did C=CCn1c(S)nnc1-c1cccnc1 show?
0%

Response amplitude as percentage of response to 100 µM OLC3, Dmel\Orco + Dmel\Or35a lookup needed for CCn1c(SCC(=O)Nc2ccc(C)c(C)c2)nnc1-c1ccncc1 , thanks.
0%
